biological target: Human Factor XIIa (Homo sapiens, UniProt P00748); construct: purchased Enzyme Research Laboratories; test: Factor XIIa inhibitory activity in vitro (fluorogenic substrate H-DPro-Phe-Arg-AFC); assay type: biochemical; conditions: 25° C., class symbols, read-out: Human FXIIa IC50
Sequence (P00748 373-615 limits assumed): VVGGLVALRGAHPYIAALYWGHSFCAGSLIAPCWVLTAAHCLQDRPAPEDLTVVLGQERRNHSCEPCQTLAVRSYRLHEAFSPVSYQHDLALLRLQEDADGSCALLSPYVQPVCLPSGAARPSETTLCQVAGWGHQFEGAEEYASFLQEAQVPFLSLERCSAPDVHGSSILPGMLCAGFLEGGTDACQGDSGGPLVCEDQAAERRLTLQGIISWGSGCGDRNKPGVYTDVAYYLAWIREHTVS
pIC50: −log10 of the molar value.
endpoint: pIC50

Field: example entries. Status: answers known.
{"compound": "N#Cc1ccccc1CN[C@@H](Cc1ccc(F)c(F)c1)C(=O)NCc1ccc2c(N)nccc2c1 [Example 55.03]", "pIC50": "4.40 to 5.00"}
{"compound": "Nc1nccc2cc(CNC(=O)[C@H](Cc3ccc(F)c(F)c3)NC(=O)c3ccccc3)ccc12 [Example 0.34]", "pIC50": "4.40 to 5.00"}
{"compound": "C[C@H](NC(=O)[C@@H](CCc1ccccc1)NS(C)(=O)=O)C(=O)NCc1cnc2[nH]cc(Cl)c2c1 [Example 9.21]", "pIC50": "4.40 to 5.00"}
{"compound": "Nc1nccc2cc(CNC(=O)[C@H](Cc3ccc(F)c(F)c3)NC(=O)Cc3ccccn3)ccc12 [Example 3.34]", "pIC50": "4.40 to 5.00"}
{"compound": "Nc1nccc2cc(CNC(=O)[C@H](Cc3ccc(F)c(F)c3)NC(=O)CCCOCc3ccccc3)ccc12 [Example 0.24]", "pIC50": "4.40 to 5.00"}

Fill in the recorded pIC50 for this compound, with Human Factor XIIa (Homo sapiens, UniProt P00748) as test system: CC(C)N[C@H](CCCCN1CCCCC1)C(=O)N[C@@H](Cc1csc2ccccc12)C(=O)NCc1ccc2c(N)nccc2c1 [Example 12.07]
> 7.52

# returns recorded pIC50 (system: Human Factor XIIa (Homo sapiens, UniProt P00748)) for C[C@@H]1CC[C@H](C)N1CC(=O)N[C@@H](Cc1ccc(F)c(F)c1)C(=O)NCc1ccc2c(N)nccc2c1 [Example 3.20]
6.00 to 6.55

----------
Target: Human Factor XIIa (Homo sapiens, UniProt P00748)
Construct: purchased Enzyme Research Laboratories
Test: Factor XIIa inhibitory activity in vitro (fluorogenic substrate H-DPro-Phe-Arg-AFC)
Assay type: biochemical
Settings: 25° C., class symbols, read-out: Human FXIIa IC50
Experimental: Determination of the % Inhibition for FXIIa Human Factor XIIa (Enzyme Research Laboratories) was incubated at 25° C. with the fluorogenic substrate H-DPro-Phe-Arg-AFC and various concentrations of the test compound. Residual enzyme activity (initial rate of reaction) was determined by measuring the change in […] at 410 nm and the IC50 value for the test compound was determined.
pIC50: −log10 of the molar value.
pIC50: recorded values

As a guide, the following entries are already answered.
{"entry-smiles": "Cn1cc(C(=O)N[C@@H](Cc2ccc(F)c(F)c2)C(=O)NCc2ccc3c(N)nccc3c2)cn1", "target-entity": "Human Factor XIIa (Homo sapiens, UniProt P00748)", "pIC50": "4.40 to 5.00"}
{"entry-smiles": "Nc1nccc2cc(CNC(=O)C[C@@H](N)Cc3ccccc3)ccc12", "target-entity": "Human Factor XIIa (Homo sapiens, UniProt P00748)", "pIC50": "4.40 to 5.00"}
{"entry-smiles": "C[C@@H]1CCC[C@H](C)N1CC(=O)N[C@@H](Cc1ccc(F)c(F)c1)C(=O)NCc1ccc2[nH]cnc2c1", "target-entity": "Human Factor XIIa (Homo sapiens, UniProt P00748)", "pIC50": "4.40 to 5.00"}
{"entry-smiles": "C[C@@H]1CCC[C@H](C)N1CC(=O)N1c2ccccc2C[C@H]1C(=O)NCc1ccc2c(N)nccc2c1", "target-entity": "Human Factor XIIa (Homo sapiens, UniProt P00748)", "pIC50": "4.40 to 5.00"}
{"entry-smiles": "Cc1nccn1CCC(=O)N[C@@H](Cc1ccc(F)c(F)c1)C(=O)NCc1ccc2c(N)nccc2c1", "target-entity": "Human Factor XIIa (Homo sapiens, UniProt P00748)", "pIC50": "5.00 to 5.52"}

For the molecule shown here, Nc1nccc2cc(CNC(=O)[C@H](Cc3ccc(F)c(F)c3)NC(=O)c3ccn[nH]3)ccc12 , give the reported pIC50.
5.00 to 5.52

Sample Nc1nccc2cc(CNC(=O)[C@@H]3C[C@@H](c4ccccc4)CN3C(=O)[C@H](N)CCc3ccccc3)ccc12 — what was its pIC50?
6.00 to 6.55

Tell me the measured pIC50 of Nc1nccc2cc(CNC(=O)[C@H](Cc3ccc(F)c(F)c3)NC(=O)c3ccc(O)nc3)ccc12 , please.
5.00 to 5.52
